- test-system: CDK2/CycA (Homo sapiens)
- Construct: purchased Proqinase
- measurement-description: CDK2 Enzymatic Activity Assay (Lance Kinase Activity Assay, FRET)
- Type: biochemical
- condition-notes: Table 5B, class symbols per IC50 [nM] ranges of b581; read-out: CDK2: Selectivity of CDK7 inhibition over CDK2 inhibition
quantity: IC50

> print(dat)
                                   compound  endpoint.value
1  CC(C)c1cnn2c(NCc3ccccc3F)nc(OC3CCN(C)CC3)nc12  500 to 2500 nM

Ask: GET /values?readout=IC50&item= `CC(C)c1cnn2c(NCc3ccccc3Br)nc(O[C@@H]3CCCNC3)nc12`
Reply: 50 to 500 nM

Ask: Same question for `CC(C)c1cnn2c(NCc3ccccc3OC3CCC3)nc(O[C@@H]3CCCNC3)nc12` please.
Reply: > 2500 nM

Ask: Next record, please: `CC(C)c1cnn2c(NCc3ccccc3C3CCCC3)nc(O[C@@H]3CCCNC3)nc12`
Reply: > 2500 nM

Ask: Next record, please: `CC(C)c1cnn2c(NCc3ccccc3-n3cccn3)nc(OC3CCNCC3)nc12`
Reply: 50 to 500 nM

Ask: Next: CC(C)c1cnn2c(NCc3ccccc3-n3cccn3)nc(C(=O)NCC3CCNC3)nc12 (centres unmarked)
Reply: > 2500 nM

Ask: Try this compound next: `CC(C)c1cnn2c(NCc3ccccc3-n3cncn3)nc(N[C@@H]3CCCNC3)nc12`
Reply: < 50 nM

---

# key: entry, value: IC50
- test-system: CDK9/Cyclin T1 (Homo sapiens)
- Sequence (P50750 whole entry): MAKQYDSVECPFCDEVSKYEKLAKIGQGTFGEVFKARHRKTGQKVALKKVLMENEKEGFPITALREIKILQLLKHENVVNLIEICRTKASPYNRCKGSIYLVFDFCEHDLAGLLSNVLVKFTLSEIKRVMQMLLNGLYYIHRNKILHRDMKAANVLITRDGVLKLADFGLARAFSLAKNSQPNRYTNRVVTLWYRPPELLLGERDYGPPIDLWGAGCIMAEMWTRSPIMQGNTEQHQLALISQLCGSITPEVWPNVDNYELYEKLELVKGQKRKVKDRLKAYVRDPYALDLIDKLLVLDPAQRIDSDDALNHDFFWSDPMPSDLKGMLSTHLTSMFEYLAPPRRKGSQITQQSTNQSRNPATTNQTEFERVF
- Sequence (O60563 whole entry partner): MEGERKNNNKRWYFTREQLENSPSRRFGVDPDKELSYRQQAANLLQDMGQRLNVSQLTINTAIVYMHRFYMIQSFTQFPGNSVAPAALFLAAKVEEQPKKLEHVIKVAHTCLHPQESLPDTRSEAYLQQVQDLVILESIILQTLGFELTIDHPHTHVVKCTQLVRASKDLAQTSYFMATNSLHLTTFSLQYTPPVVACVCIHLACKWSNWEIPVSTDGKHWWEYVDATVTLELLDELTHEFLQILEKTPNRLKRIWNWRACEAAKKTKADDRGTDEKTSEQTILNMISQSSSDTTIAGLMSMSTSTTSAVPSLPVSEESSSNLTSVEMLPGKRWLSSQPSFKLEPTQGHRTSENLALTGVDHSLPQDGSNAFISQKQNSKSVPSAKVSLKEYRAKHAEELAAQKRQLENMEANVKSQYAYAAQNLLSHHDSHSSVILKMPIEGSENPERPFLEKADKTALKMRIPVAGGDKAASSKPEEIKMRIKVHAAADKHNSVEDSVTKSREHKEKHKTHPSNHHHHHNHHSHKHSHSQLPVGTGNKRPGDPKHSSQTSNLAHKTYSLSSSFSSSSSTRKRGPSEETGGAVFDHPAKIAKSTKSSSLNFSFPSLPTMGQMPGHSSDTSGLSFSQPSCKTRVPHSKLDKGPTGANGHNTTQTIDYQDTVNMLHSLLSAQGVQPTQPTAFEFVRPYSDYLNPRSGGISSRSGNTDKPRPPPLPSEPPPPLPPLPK
- measurement-description: CDK9 Enzymatic Activity Assay (Lance Kinase Activity Assay, FRET)
- Assay type: biochemical
- condition-notes: Table 5B, class symbols per IC50 [nM] ranges of b581; read-out: CDK9: Selectivity of CDK7 inhibition over CDK9 inhibition

> print(dat)
                                   molecule                    test.system  endpoint.value
1  CC(C)c1cnn2c(NCc3ccccc3-n3cccn3)nc(N3CCC34CNC4)nc12  CDK9/Cyclin T1 (Homo sapiens)       > 2500 nM

Ask: Looking for the measured IC50 of CC(C)c1cnn2c(NCc3ccccc3-n3cccn3)nc(N3CCC4(CCCNC4)C3)nc12 (centres unmarked) , can you help?
Reply: > 2500 nM

Ask: # iterate: `CC(C)Oc1ccccc1CNc1nc(O[C@@H]2CCCNC2)nc2c(C(C)C)cnn12`
Reply: 500 to 2500 nM

Ask: What do you get for `CC(C)c1cnn2c(NCc3ccccc3-c3ccccc3)nc(O[C@@H]3CCNC3)nc12` ?
Reply: 500 to 2500 nM

Ask: // repeat for CC(C)c1cnn2c(NCc3ccccc3-n3cccn3)nc(N3CCC4(CCCN4)C3)nc12 (centres unmarked) and report
Reply: > 2500 nM

---

- test-system: CDK7/CycH/Mat1 (Homo sapiens, UniProt P50613)
- Sequence (P50613 whole entry): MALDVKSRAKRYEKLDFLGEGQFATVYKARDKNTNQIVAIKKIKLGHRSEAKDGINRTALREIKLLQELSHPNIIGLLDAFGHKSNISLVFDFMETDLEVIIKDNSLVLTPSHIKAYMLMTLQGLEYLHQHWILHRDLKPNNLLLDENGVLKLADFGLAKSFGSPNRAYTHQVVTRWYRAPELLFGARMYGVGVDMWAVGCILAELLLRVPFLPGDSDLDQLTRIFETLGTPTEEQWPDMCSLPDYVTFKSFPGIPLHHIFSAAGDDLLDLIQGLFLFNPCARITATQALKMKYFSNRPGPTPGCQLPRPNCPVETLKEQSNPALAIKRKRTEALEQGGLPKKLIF
- measurement-description: CDK7 Enzymatic Activity Assay (Lance Kinase Activity Assay, FRET)
- Assay type: biochemical
- condition-notes: CDK7/CycH/Mat1, 25 μM ATP final; class ranges; read-out: CDK7: IC50 [nM] for CDK7 inhibition
Reported IC50 is given for each of the following compounds.

> print(dat)
                                   compound                               test.system  endpoint.value
1  CC(C)c1cnn2c(NCc3ccccc3S(=O)(=O)N(C)C)nc(O[C@@H]3CCCNC3)nc12  CDK7/CycH/Mat1 (Homo sapiens, UniProt P50613)          < 5 nM
2  C#CC(C)NC(=O)c1ccccc1CNc1nc(O[C@@H]2CCCNC2)nc2c(C(C)C)cnn12 (some centres unmarked)  CDK7/CycH/Mat1 (Homo sapiens, UniProt P50613)     10 to 25 nM
3  CC(C)c1cnn2c(NCc3ccccc3[S+](C)[O-])nc(O[C@@H]3CCCNC3)nc12 (some centres unmarked)  CDK7/CycH/Mat1 (Homo sapiens, UniProt P50613)     10 to 25 nM

Ask: Quick check: IC50 of CC(C)c1cnn2c(NCc3ccccc3C(F)(F)F)nc(OC3CCN(C)CC3)nc12 [(VII-058)] ?
Reply: > 25 nM

Ask: Param item: `CC(C)c1cnn2c(NCc3ccccc3-c3ncco3)nc(O[C@@H]3CCCNC3)nc12`
Reply: < 5 nM

Ask: Now consider `CC(C)c1cnn2c(NCc3ccccc3-n3cccn3)nc(N(C)CCCN3CCCCC3)nc12` .
Reply: > 25 nM

Ask: Okay, and `CC(C)c1cnn2c(NCc3ccccc3OC3CCCC3)nc(O[C@@H]3CCCNC3)nc12` ?
Reply: > 25 nM

Ask: Thanks! And `Cc1ccccc1CNc1nc(OC2CCN(C)CC2)nc2c(C(C)C)cnn12` ?
Reply: 5 to 10 nM
